Parameter: self-splicing fitness (ln). Scope: all listed entries.
# ASSAY TEXT: self-splicing fitness, log relative to wild type (ln ratio); higher = more splicing; Tetrahymena group I intron in knt gene, E. coli kanamycin selection, DiMSum; sequences stand for … in CUCUCU…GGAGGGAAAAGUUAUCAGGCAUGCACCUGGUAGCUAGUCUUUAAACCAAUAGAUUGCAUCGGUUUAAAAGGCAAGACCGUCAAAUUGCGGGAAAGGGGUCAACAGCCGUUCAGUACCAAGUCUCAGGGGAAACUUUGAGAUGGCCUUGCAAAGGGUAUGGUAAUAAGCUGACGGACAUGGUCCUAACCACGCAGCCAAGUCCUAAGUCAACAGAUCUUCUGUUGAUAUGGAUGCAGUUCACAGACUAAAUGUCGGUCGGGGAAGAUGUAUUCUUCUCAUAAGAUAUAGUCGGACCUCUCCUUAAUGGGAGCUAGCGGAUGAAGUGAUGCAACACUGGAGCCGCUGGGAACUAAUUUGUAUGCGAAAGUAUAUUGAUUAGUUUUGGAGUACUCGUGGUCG;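 further: selection with 25 µg/mL kanamycin versus none on LB agar overnight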
# CONDITION PARAMETERS: 37 °C
Answer using only a numeral; do not append any unit.

Worked examples, 5 sequences total:
UUUUAGCAAUAUUACGAACU: -0.164
UGUUAGCAAUAUUACGAUAG: 0.173
GAUCAGCAAUAUUACGGUGA: -0.422
AUAUAGCAAUAUUACGGACC: -0.283
AGCCAGCAAUAUUACGCUAA: -0.465

Kindly consider the entry below.
Entry GUGUAGCAAUAUUACGAAUG ; self-splicing fitness (ln) = -1.51

---

# ASSAY TEXT: self-splicing fitness, log relative to wild type (ln ratio); higher = more splicing; Tetrahymena group I intron in knt gene, E. coli kanamycin selection, DiMSum; sequences stand for … in CUCUCU…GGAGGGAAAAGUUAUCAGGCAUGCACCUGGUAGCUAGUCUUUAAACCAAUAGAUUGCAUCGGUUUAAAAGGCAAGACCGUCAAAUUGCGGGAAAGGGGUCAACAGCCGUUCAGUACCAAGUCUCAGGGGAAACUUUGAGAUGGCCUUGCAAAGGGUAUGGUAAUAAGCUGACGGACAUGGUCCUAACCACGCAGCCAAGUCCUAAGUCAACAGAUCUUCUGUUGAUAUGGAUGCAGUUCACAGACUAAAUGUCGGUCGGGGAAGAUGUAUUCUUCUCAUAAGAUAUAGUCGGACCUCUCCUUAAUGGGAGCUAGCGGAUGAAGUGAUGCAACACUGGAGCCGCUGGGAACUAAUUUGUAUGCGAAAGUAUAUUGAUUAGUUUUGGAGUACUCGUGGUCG
# CONDITION PARAMETERS: 37 °C
EXPERIMENTAL ENDPOINT: self-splicing fitness (ln)

Worked examples, 3 sequences total:
CCCCAGCAAUAUUACGCGAG: -3.14
AGAUAGCAAUAUUACGCUAC: -2.56
CCCUAGCAAUAUUACGAGGA: -0.53

Entry UUCCAGCAAUAUUACGGCAG ; self-splicing fitness (ln) = -0.096

Entry CGCGAGCAAUAUUACGAGGU ; self-splicing fitness (ln) = -1.93

Entry UACAAGCAAUAUUACGGUCA ; self-splicing fitness (ln) = 0.514

Entry CUACAGCAAUAUUACGAGGG ; self-splicing fitness (ln) = -2.59

Entry CAACAGCAAUAUUACGCUCC ; self-splicing fitness (ln) = -0.675

Entry GCCUAGCAAUAUUACGUUCA ; self-splicing fitness (ln) = -1.12

Entry UUGUAGCAAUAUUACGGUCG ; self-splicing fitness (ln) = -0.593

Entry AGUUAGCAAUAUUACGCGCA ; self-splicing fitness (ln) = 0.341

Entry ACCCAGCAAUAUUACGGGGC ; self-splicing fitness (ln) = -2.73

Entry GGACAGCAAUAUUACGGUUC ; self-splicing fitness (ln) = -1.82
